- Tested on: A498 renal
- test.name: NCI-60 one-dose screen, 48 h (100 = growth as untreated, 0 = no growth, -100 = all killed)
- condition.description: 10 µM unless noted
- Protocol: Growth inhibition of the A498 human tumor cell line is measured as a screen for anti-cancer activity. Cells are grown in 96 well plates and exposed to the test compound for 48 hours. Compounds are tested at a single concentration, which is 10^-5 M for most compounds. The reported endpoint is percent growth (GI% or GIPRCNT), where numbers from 0 - 100% represent growth inhibition, and numbers from -100% - 0 represent cell death. For example, a value of 40 represents 60% growth inhibition. […]
The panel holds about 83,000 compounds, 20% with a hit somewhere; the sample as a whole holds those more often.
readout.label: growth (%)
Answers are plain numbers, in %.

Working through the 5 molecules below one at a time, give growth for each.
1. O=C1O[C@@H](c2ccccc2Cl)[C@@H]2c3cc4c(cc3CCN12)OCO4
2. CC12OC(CC(O)C1O)n1c3ccccc3c3c4c(c5c6ccccc6n2c5c31)C(=O)N(CCN1CCCC1)C4=O (centres undefined)
3. COc1ccc2c(c1)CC[C@@H]1[C@@H]2CC[C@]2(C)C3C(=CC(COC(C)=O)C4C(=O)N(c5ccc(Cl)cc5)C(=O)C43)C[C@@H]12 (some centres undefined)
4. CN1C(=O)N2CN3CCCN(C3)CN3C(=S)NC1C23 (centres undefined)
5. CC1(C)N=C(N)N=C(N)N1c1ccc(S(=O)(=O)Nc2nccs2)cc1

stdout:
1: 82.8; 2: 17.8; 3: 108; 4: 98.9; 5: 96.2

====

- System: KM12 colon
- test.name: NCI-60 one-dose screen, 48 h (100 = growth as untreated, 0 = no growth, -100 = all killed)
- condition.description: 10 µM unless noted
Compounds without any hit were thinned out: in the full panel of roughly 83,000, 20% have a hit.
readout.label: growth (%)
Answers are plain numbers, in %.

// known answers, use as guide
molecule=COc1ccc(Cl)cc1Nc1nc(C(F)(F)F)ccc1C(=O)N/N=C/c1ccc([N+](=O)[O-])cc1 readout_label=growth result_value=-3.54
molecule="O=C(O)CC(C(=O)O)/C(=C\\c1ccccc1)c1ccccc1 (stereo not given)" readout_label=growth result_value=108

Working through the 3 molecules below one at a time, give growth for each.
1. COc1ccc(Oc2ccc(/C=C/C(=O)c3ccc(OC)c(OC)c3)cc2)cc1
2. O=C(Nc1cc(Cl)ccc1O)c1ccccc1Nc1ccnc(C(F)(F)F)c1
3. CCCC(=O)NC(c1ccc2c(c1)OCO2)c1cc(Cl)c2cccnc2c1O (stereo not given)

stdout:
1. 79
2. 7.26
3. 33.9

====

- System: NCI/ADR-RES ovarian
- test.name: NCI-60 one-dose screen, 48 h (100 = growth as untreated, 0 = no growth, -100 = all killed)
- condition.description: 10 µM unless noted
This is part of a sample that, as a whole, favours compounds with a hit. Of some 83,000 tested, about 20% had one in any assay.
Mark true for growth under 90%, false if at or over.

Answered cases to consult:
molecule=Cn1c2ccccc2c2c3c(c4c5cc(Br)ccc5n(C)c4c21)C(=O)N(O)C3=O label=true
molecule=CN1CCOCCN(C)Cc2ccc3ccc(cc3c2)CN(C)CCOCCN(C)Cc2ccc3ccc(cc3c2)C1 label=true
molecule=COc1ccc(-c2cn(Cc3cc4ccccc4s3)nn2)cc1OCCN1CCCCC1 label=true
molecule="CC12OC(CC(O)C1O)n1c3ccccc3c3c4c(c5c6ccccc6n2c5c31)C(=O)N(CCN1CCCC1)C4=O (stereo not drawn)" label=true
molecule=CCOc1ccc(/C=C/C(=O)c2cccc(OCCCOc3cccc(C(=O)/C=C/c4ccc(OCC)cc4)c3)c2)cc1 label=true

stdin: Determine whether this molecule shows growth lower than 90% (ties excluded): COc1cc2c(cc1OCCCN1CCN(C(=S)SCCC(C#N)(c3ccccc3)c3ccccc3)CC1)N=C[C@@H]1CCCN1C2=O
stdout: true

Ref: PubChem BioAssay (NCI)
